# Tested on: U-2 OS
# measurement_notes: cell painting activity score (Mahalanobis distance from DMSO wells); higher = stronger morphological phenotype
# setup_conditions: 5 µM; 24 h
cell painting activity score below 10 gives no; cell painting activity score at or above it gives yes.

The following compounds have reported results that may help.
smiles: C[C@H]1O[C@@H](O[C@H]2CC[C@@]3(C)[C@@H](CC[C@]4(C)[C@@H]3C=C[C@]35OC[C@@]6(CCC(C)(C)C[C@H]63)[C@@H](O)C[C@]54C)[C@]2(C)CO)[C@H](O)[C@@H](O[C@@H]2O[C@H](CO)[C@@H](O)[C@H](O)[C@H]2O)[C@H]1O
class_assignment: no
--
smiles: CCN(CC)Cc1ccc2cc(COC(=O)Nc3ccc(C(=O)NO)cc3)ccc2c1.Cl
class_assignment: yes
--
smiles: CC(C)(N=NC(C)(C)C(=N)N)C(=N)N.Cl.Cl
class_assignment: no
--
smiles: CC[C@@]1(O)C(=O)OCc2c1cc1n(c2=O)Cc2cc3ccccc3nc2-1
class_assignment: yes
--
smiles: C[C@@]1(CO)[C@H](O)CC[C@@]2(C)[C@H]1CC[C@H]1C[C@@H]3C[C@@]12CC[C@]3(O)CO
class_assignment: yes

[ask] cell painting activity score >= 10 for C[C@H]1CCC/C=C/[C@@H]2C[C@H](O)C[C@H]2[C@H](O)/C=C/C(=O)O1 ?
[reply] yes

[ask] Queued: CCCCCOc1ccc(/C=C\c2cccc(O)c2C(=O)O)cc1
[reply] no

[ask] Input CC(C)[C@H](C(=O)Nc1ccc(C(=O)NO)cc1)c1ccccc1
[reply] yes

---

# Test system: U-2 OS
# measurement_notes: relative cell count vs DMSO (cell painting) (fraction of DMSO control); higher = more cells remaining (less cytotoxic)
# setup_conditions: 1.25 µM; 24 h
If the reported relative cell count equals or exceeds 0.9, assign fulfilled. If not, assign not fulfilled.

Example entries and their recorded answers appear below.
compound: Nc1nccc2c1ncn2[C@@H]1C=C(CO)[C@@H](O)[C@H]1O
class_assignment: fulfilled

compound: O=S1(=O)CC(N2CCCC2)c2ccccc21 (stereo unspecified)
class_assignment: fulfilled

compound: COc1ccc(/C(Cl)=C(\C=O)c2ccc(OC)cc2)cc1
class_assignment: fulfilled

compound: CCc1c2c(nc3ccc(OC(=O)N4CCC(N5CCCCC5)CC4)cc13)-c1cc3c(c(=O)n1C2)COC(=O)[C@]3(O)CC.Cl
class_assignment: not fulfilled

Then there is this compound:
[ask] Could you verify whether the entry CC[C@]1(O)C[C@@H]2CN(CCc3c([nH]c4ccccc34)[C@@](C(=O)OC)(c3cc4c(cc3OC)N(C)[C@H]3[C@@](O)(C(=O)OC)[C@H](OC(C)=O)[C@]5(CC)C=CCN6CC[C@]43[C@@H]65)C2)C1 shows relative cell count of no less than 0.9?
[reply] not fulfilled

---

Some compounds, each annotated with its measured cell painting activity score.
# System: U-2 OS
# measurement_notes: cell painting activity score (Mahalanobis distance from DMSO wells); higher = stronger morphological phenotype
# setup_conditions: 5 µM; 24 h
Please respond with just the number, no unit label.

Known results for compounds:
compound: c1ccc(Nc2nc(-c3ccccc3)ns2)cc1
assay_value: 5.01

compound: COc1ccc(N(C(=O)CCl)C(C(=O)NCCc2ccccc2)c2cccs2)cc1Cl (stereo unspecified)
assay_value: 14.4

compound: Cn1ncnc2c(=O)n(C)c(=O)nc1-2
assay_value: 30

compound: CC[C@H](C)[C@@H]1NC(=O)CNC(=O)[C@@H]2Cc3c([nH]c4cc(O)ccc34)S(=O)C[C@H](NC(=O)CNC1=O)C(=O)N[C@@H](CC(=O)O)C(=O)N1C[C@H](O)C[C@H]1C(=O)N[C@@H]([C@@H](C)[C@@H](O)CO)C(=O)N2 (stereo partly specified)
assay_value: 4.42

[ask] Please report the recorded cell painting activity score for O=[N+]([O-])c1c(Sc2ncnc3nc[nH]c23)cc(Cl)c2nsnc12 .
[reply] 4.68

[ask] What about CC(C)[C@H]1OC(=O)[C@H](Cc2ccccc2)N(C)C(=O)[C@@H](C(C)C)OC(=O)[C@H](Cc2ccccc2)N(C)C(=O)[C@@H](C(C)C)OC(=O)[C@H](Cc2ccccc2)N(C)C1=O ?
[reply] 14.2

[ask] // repeat for O=C1O[C@H]2[C@@H]3OC(=O)c4cc(O)c(O)c(O)c4-c4c(O)c(O)c5oc(=O)c6c(c(O)c(O)c7oc(=O)c4c5c76)-c4c(cc(O)c(O)c4O)C(=O)OC[C@H]3OC(O)[C@@H]2OC(=O)c2cc(O)c(O)c(O)c2-c2c1cc(O)c(O)c2O (stereo partly specified) and report
[reply] 7.71

[ask] // repeat for C=C1[C@@H](C)[C@H]2[C@H](Cc3ccccc3)NC(=O)[C@]23[C@H](OC(C)=O)/C=C/[C@@](C)(O)C(=O)[C@@H](C)C/C=C/[C@H]3[C@@H]1O and report
[reply] 17.4

[ask] Same question for O=C(OC[C@H]1O[C@@H](OC(=O)c2cc(O)c(O)c(OC(=O)c3cc(O)c(O)c(O)c3)c2)[C@H](OC(=O)c2cc(O)c(O)c(OC(=O)c3cc(O)c(O)c(O)c3)c2)[C@@H](OC(=O)c2cc(O)c(O)c(OC(=O)c3cc(O)c(O)c(O)c3)c2)[C@@H]1OC(=O)c1cc(O)c(O)c(OC(=O)c2cc(O)c(O)c(O)c2)c1)c1cc(O)c(O)c(OC(=O)c2cc(O)c(O)c(O)c2)c1 please.
[reply] 5.91

[ask] Check COC(=O)c1ccc([C@H]2c3[nH]c4ccccc4c3C[C@H](C(=O)OC)N2C(=O)CCl)cc1 too.
[reply] 10.8

[ask] Lookup CCc1c2c(nc3ccc(OC(=O)N4CCC(N5CCCCC5)CC4)cc13)-c1cc3c(c(=O)n1C2)COC(=O)[C@]3(O)CC.Cl
[reply] 10.7

---

# System: U-2 OS
# measurement_notes: relative cell count vs DMSO (cell painting) (fraction of DMSO control); higher = more cells remaining (less cytotoxic)
# setup_conditions: 5 µM; 24 h
property_name: relative cell count
// print number alone

Study these solved cases before continuing.
compound: CN(N=O)C(=O)N[C@@H]1[C@@H](O)[C@H](O)[C@@H](CO)O[C@@H]1O
relative cell count: 0.893

compound: CC[C@H](C)[C@@H]1NC(=O)CNC(=O)[C@@H]2Cc3c([nH]c4cc(O)ccc34)S(=O)C[C@H](NC(=O)CNC1=O)C(=O)N[C@@H](CC(=O)O)C(=O)N1C[C@H](O)C[C@H]1C(=O)N[C@@H]([C@@H](C)[C@@H](O)CO)C(=O)N2 (some centres undefined)
relative cell count: 0.992

compound: C[C@@H]1O[C@@H](O[C@H]2[C@H](O[C@H]3CC[C@@]4(C)[C@@H](CC[C@]5(C)[C@@H]4CC=C4[C@@H]6CC(C)(C)CC[C@]6(C(=O)O[C@@H]6O[C@H](CO[C@@H]7O[C@H](CO)[C@@H](O[C@@H]8O[C@@H](C)[C@H](O)[C@@H](O)[C@H]8O)[C@H](O)[C@H]7O)[C@@H](O)[C@H](O)[C@H]6O)CC[C@]45C)[C@]3(C)CO)OC[C@H](O)[C@@H]2O)[C@H](O)[C@H](O)[C@H]1O
relative cell count: 1

[ask] Given the entry C=CC(=O)Nc1cccc(Oc2nc(Nc3ccc(N4CCN(C)CC4)cc3OC)ncc2Cl)c1 , what relative cell count was observed with U-2 OS?
[reply] 0.957

---

# Test system: U-2 OS
# measurement_notes: cell painting activity score (Mahalanobis distance from DMSO wells); higher = stronger morphological phenotype
# setup_conditions: 2.5 µM; 24 h
property_name: cell painting activity score
Lab note: record the figure alone, no unit after it.

Here's what some known entries look like.
compound: NC1CS(=O)(=O)c2ccccc21 (stereo not given)
cell painting activity score: 4.72
--
compound: CN1CCN(CCOc2cc(OC3CCOCC3)c3c(Nc4c(Cl)ccc5c4OCO5)ncnc3c2)CC1
cell painting activity score: 9.68
--
compound: CCOc1ccccc1-n1c(C(C)N2CCN(C(=O)COc3ccc(Cl)cc3)CC2)nc2ccccc2c1=O (stereo not given)
cell painting activity score: 6.59
--
compound: O=C(OCC)/C(C(OCC)=O)=C\CCCCCCCCCCCCCC
cell painting activity score: 5.29

Consider the record given below.
[ask] Fill in the blank: the reported cell painting activity score of Nc1nc(-c2ccccc2)ns1 is ____.
[reply] 4.04

---

# Tested on: U-2 OS
# measurement_notes: relative cell count vs DMSO (cell painting) (fraction of DMSO control); higher = more cells remaining (less cytotoxic)
# setup_conditions: 5 µM; 24 h
Decision: relative cell count >= 0.9 yields 1, all other cases yield 0.

// known answers, use as guide
compound: CC(C)C[C@@H](C=O)NC(=O)[C@@H](CC(C)C)NC(=O)[C@H](CC(C)C)NC(=O)OCc1ccccc1
class_assignment: 1
//
compound: C[C@@H]1O[C@@H](O[C@H]2[C@H](OC(=O)[C@]34CCC(C)(C)C[C@H]3C3=CC[C@@H]5[C@@]6(C)C[C@H](O)[C@H](O[C@@H]7O[C@H](CO)[C@@H](O)[C@H](O)[C@H]7O)[C@@](C)(CO)[C@@H]6CC[C@@]5(C)[C@]3(C)CC4)O[C@H](CO)[C@@H](O)[C@@H]2O)[C@H](O)[C@H](O)[C@H]1O[C@@H]1OC[C@@H](O)[C@H](O)[C@H]1O
class_assignment: 1
//
compound: COC(=O)Nc1nc2ccc(C(=O)c3cccs3)cc2[nH]1
class_assignment: 0
//
compound: CCCCCOc1ccc(/C=C\c2cccc(O)c2C(=O)O)cc1
class_assignment: 1
//
compound: CNC(=O)Nc1ccc2c(c1)[C@@]1(CC2)OC(=O)N(CC(=O)N(Cc2ccc(F)cc2)[C@@H](C)C(F)(F)F)C1=O
class_assignment: 1
//
compound: Cc1cc(-c2ccccc2)cc(C(=O)NNS(=O)(=O)c2ccccc2)c1F
class_assignment: 1
//
compound: O=S1(=O)CC(Sc2cccs2)c2ccccc21 (stereo not given)
class_assignment: 1
//
compound: O=C(CSC1CC(=O)N(c2cccc(Cl)c2)C1=O)Nc1ccc(Br)cc1 (stereo not given)
class_assignment: 1

[ask] Can O=C(O[C@@H]1O[C@@H]2COC(=O)c3cc(O)c(O)c(O)c3-c3c(cc(O)c(O)c3O)C(=O)O[C@H]([C@H]1O)[C@@H]2O)c1cc(O)c(O)c(O)c1 be said to have relative cell count at or above 0.9?
[reply] 1

[ask] # iterate: O=C(/C(C(N1CC2=CC=CC=C2)=O)=C/C3=C(C)C=C(O)C=C3C)N(CC4=CC=CC=C4)C1=O
[reply] 0
